Test system: E. coli TESEC Mtb Alr
ASSAY DETAILS: growth (OD600 after 10 h); higher = more growth (less inhibition)
CONDITIONS: arabinose 10000000 nM; compound 0.1 mM; raw OD600 reference: median of DMSO wells 0.146, cell-free background 0.041
Where a name gives a salt, the structure may show the parent alone.
MEASURED ENDPOINT: growth
# answer = number (no unit)

Below, 5 molecules whose answers are already recorded.
[[record]]
molecule = "CC(C)(C)NC[C@H](O)c1ccc(O)c(CO)c1 [Levalbuterol hydrochloride]"
measured_endpoint = "growth"
numeric_result = 0.141

[[record]]
molecule = "CNC(=O)c1c(I)c(C(=O)NCC(=O)Nc2c(I)c(C(=O)O)c(I)c(C(=O)NCCO)c2I)c(I)c(N(C)C(C)=O)c1I"
measured_endpoint = "growth"
numeric_result = 0.139

[[record]]
molecule = "CCCCNc1ccc(C(=O)OCCN(C)C)cc1"
measured_endpoint = "growth"
numeric_result = 0.146

[[record]]
molecule = "C#C[C@]1(O)CC[C@H]2[C@@H]3CCC4=C(CCC(=O)C4)[C@H]3CC[C@@]21C"
measured_endpoint = "growth"
numeric_result = 0.089

[[record]]
molecule = "CNCC(O)c1ccc(O)c(O)c1 (stereo not given) [Racepinephrine HCl]"
measured_endpoint = "growth"
numeric_result = 0.155


response.value for CCOc1cc(CC(=O)N[C@@H](CC(C)C)c2ccccc2N2CCCCC2)ccc1C(=O)O [Repaglinide] (field: growth) = 0.155

----------
Tested on: E. coli TESEC Mtb Alr
ASSAY DETAILS: growth (OD600 after 10 h); higher = more growth (less inhibition)
CONDITIONS: arabinose 10000 nM; compound 0.1 mM; raw OD600 reference: median of DMSO wells 0.264, cell-free background 0.041
Structures can show the parent of a compound that is named as a salt.
MEASURED ENDPOINT: growth

[[record]]
molecule = "O=C(O[C@@H]1C[C@@H]2C[C@H]3C[C@H](C1)N2CC3=O)c1c[nH]c2ccccc12 [Dolasetron mesilate]"
assay_system = "E. coli TESEC Mtb Alr"
result = 0.238

[[record]]
molecule = "CN(C)CCCO[C@@H]1[C@H]2OC(C)(C)O[C@H]2O[C@@H]1[C@H](O)CO [Amiprilose hydrochloride]"
assay_system = "E. coli TESEC Mtb Alr"
result = 0.262

[[record]]
molecule = "CCOc1cc(CC(=O)N[C@@H](CC(C)C)c2ccccc2N2CCCCC2)ccc1C(=O)O [Repaglinide]"
assay_system = "E. coli TESEC Mtb Alr"
result = 0.26


response.value for COc1ccc(CC2c3cc(OC)c(OC)cc3CC[N+]2(C)CCC(=O)OCCCCCOC(=O)CC[N+]2(C)CCc3cc(OC)c(OC)cc3C2Cc2ccc(OC)c(OC)c2)cc1OC (stereo not given) [Atracurium besylate] (field: growth) = 0.25

----------
Tested on: E. coli TESEC Mtb Alr
ASSAY DETAILS: growth (OD600 after 10 h); higher = more growth (less inhibition)
CONDITIONS: arabinose 100000 nM; compound 0.1 mM; raw OD600 reference: median of DMSO wells 0.201, cell-free background 0.041
Where a name gives a salt, the structure may show the parent alone.
Outcome label depends on growth relative to 0.2: at/above gives MET, below gives NOT MET.

Is the recorded value of growth equal to or greater than 0.2 for this compound? Cc1cc(N)c2ccccc2[n+]1CCCCCCCCCC[n+]1c(C)cc(N)c2ccccc21 [Dequalinium dichloride]
NOT MET

Is the recorded value of growth equal to or greater than 0.2 for this compound? CC(=O)OCC(=O)NCCCOc1cccc(CN2CCCCC2)c1 [Roxatidine Acetate HCl]
MET

Is the recorded value of growth equal to or greater than 0.2 for this compound? CCN1CCCC1CNC(=O)c1cc(S(=O)(=O)CC)c(N)cc1OC (stereo not given) [Amisulpride]
MET

Is the recorded value of growth equal to or greater than 0.2 for this compound? CC(=O)Oc1cc(C(F)(F)F)ccc1C(=O)O
NOT MET

Is the recorded value of growth equal to or greater than 0.2 for this compound? O=C(Cn1ccnc1[N+](=O)[O-])NCCO
MET

Is the recorded value of growth equal to or greater than 0.2 for this compound? CC(C)NCC(O)COc1ccc(CCOCC2CC2)cc1 (stereo not given) [Betaxolol hydrochloride]
MET

Is the recorded value of growth equal to or greater than 0.2 for this compound? COc1cc(C)nc(-n2nc(C)cc2OC)n1 [Epirizole]
NOT MET

Is the recorded value of growth equal to or greater than 0.2 for this compound? COc1cccc2c1C(=O)c1c(O)c3c(c(O)c1C2=O)C[C@@](O)(C(=O)CO)C[C@@H]3O[C@H]1C[C@H](N)[C@@H](O)[C@H](C)O1 [Epirubicin hydrochloride]
NOT MET

----------
System: E. coli TESEC Mtb Alr
ASSAY DETAILS: growth (OD600 after 10 h); higher = more growth (less inhibition)
CONDITIONS: arabinose 100000 nM; compound 0.1 mM; raw OD600 reference: median of DMSO wells 0.201, cell-free background 0.041
Where a name gives a salt, the structure may show the parent alone.
MEASURED ENDPOINT: growth
# answer = number (no unit)

[[record]]
compound = "CCCCCN(C)CCC(O)(P(=O)(O)O)P(=O)(O)O [Ibandronate sodium]"
assay_system = "E. coli TESEC Mtb Alr"
numeric_result = 0.196

[[record]]
compound = "COc1cnc(NS(=O)(=O)c2ccc(N)cc2)nc1 [Sulfameter]"
assay_system = "E. coli TESEC Mtb Alr"
numeric_result = 0.218

[[record]]
compound = "CCCCOc1ccc(C(=O)CCN2CCCCC2)cc1 [Dyclonine hydrochloride]"
assay_system = "E. coli TESEC Mtb Alr"
numeric_result = 0.183


Here is another compound to look at.
response.value for Nc1nc(Cl)nc2c1ncn2[C@H]1C[C@H](O)[C@@H](CO)O1 [Cladribine] (field: growth) = 0.118

----------
Tested on: E. coli TESEC Mtb Asd
ASSAY DETAILS: growth (OD600 after 10 h); higher = more growth (less inhibition)
CONDITIONS: arabinose induction (level): Low; compound 0.1 mM; raw OD600 reference: median of DMSO wells 0.417, cell-free background 0.041
Counter-ions that a name gives are not always drawn.
Catalogue of growth values
# answer = number (no unit)

response.value for CCCCN1CCCCC1C(=O)Nc1c(C)cccc1C (stereo not given) [Bupivacaine hydrochloride] (field: growth) = 0.418

response.value for CC(C)(C)NC[C@H](O)COc1cccc2c1CCCC2=O [(-) -Levobunolol hydrochloride] (field: growth) = 0.428

response.value for CCN[C@H]1CN(CCCOC)S(=O)(=O)c2sc(S(N)(=O)=O)cc21 [Brinzolamide] (field: growth) = 0.385

response.value for CNC(=O)c1c(I)c(C(=O)NCC(=O)Nc2c(I)c(C(=O)O)c(I)c(C(=O)NCCO)c2I)c(I)c(N(C)C(C)=O)c1I (field: growth) = 0.359

response.value for O=C(Nc1ccc([N+](=O)[O-])cc1Cl)c1cc(Cl)ccc1O [Niclosamide] (field: growth) = 0.225

----------
Test system: E. coli TESEC Alr+ wild-type control
ASSAY DETAILS: growth (OD600 after 10 h); higher = more growth (less inhibition)
CONDITIONS: compound 0.1 mM; raw OD600 reference: median of DMSO wells 0.241, cell-free background 0.041
Counter-ions that a name gives are not always drawn.
Outcome label depends on growth relative to 0.2: at/above gives True, below gives False.

[[record]]
molecule = "NS(=O)(=O)c1cc(C(=O)O)cc(N2CCCC2)c1Oc1ccccc1 [Piretanide]"
assigned_category = "True"

[[record]]
molecule = "Cc1noc(NS(=O)(=O)c2ccc(N)cc2)c1C"
assigned_category = "True"


Is the recorded value of growth equal to or greater than 0.2 for this molecule? CCc1cccc(CC)c1NC(=O)CN(CC(=O)O)CC(=O)O
True

Is the recorded value of growth equal to or greater than 0.2 for this molecule? c1ccc2c(c1)CCCC2C1=NCCN1 (centres undefined) [Tetrahydrozoline hydrochloride]
True

Is the recorded value of growth equal to or greater than 0.2 for this molecule? COc1ccc2c(c1)C(=O)N(CCc1ccc(S(=O)(=O)NC(=O)NC3CCCCC3)cc1)C(=O)C2(C)C
False

Is the recorded value of growth equal to or greater than 0.2 for this molecule? CCOC(=O)[C@H](CCc1ccccc1)N[C@@H](C)C(=O)N1[C@H](C(=O)O)C[C@@H]2CCC[C@@H]21
True

Is the recorded value of growth equal to or greater than 0.2 for this molecule? O=C(NCC1CCCCN1)c1cc(OCC(F)(F)F)ccc1OCC(F)(F)F (centres undefined) [Flecainide acetate]
True

Is the recorded value of growth equal to or greater than 0.2 for this molecule? CO/N=C(\C(=O)N[C@@H]1C(=O)N2C(C(=O)O)=C(COC(C)=O)CS[C@H]12)c1csc(N)n1 [Cefotaxime sodium salt]
False

Is the recorded value of growth equal to or greater than 0.2 for this molecule? C#C[C@]1(O)CC[C@H]2[C@@H]3CCC4=CC(=O)CC[C@@H]4[C@H]3CC[C@@]21CC [Norgestrel-(-)-D]
True
